tested on: U251 CNS; assay: NCI tumour cell line growth inhibition, 48 h
Catalogue of TGI readings, one per entry.
Only the number, expressed in µM, is required.

Answered examples (2):
INSERT INTO results (molecule, target_desc, value_kind, measurement_unit, data_value) VALUES
  ('CC1=NOC(=O)/C1=C/c1ccc2c(c1)OCO2', 'U251 CNS', 'TGI', 'µM', 38),
  ('O=C(/C=C/C12c3ccccc3C(c3ccccc31)C1C(=O)NC(=O)C12)c1ccccc1 (stereo not given)', 'U251 CNS', 'TGI', 'µM', 2.96);

[Q] # query: TGI | item COc1cc(C(=O)c2cocc2C(=O)c2ccc3c(c2)OCO3)cc(OC)c1OC | system: U251 CNS
[A] 8.35

---

test system: SNB-78 CNS; experiment: NCI tumour cell line growth inhibition, 48 h
value-kind: TGI

INSERT INTO measurements (compound, target_desc, value_kind, data_value) VALUES
  ('Nc1c2ccccc2nc2c(C(=O)Nc3ccc(S(N)(=O)=O)cc3)cccc12', 'SNB-78 CNS', 'TGI', '> 100 µM'),
  ('CC1=CCCC2C(C=O)(C1)CC(C)C2(CO)CC/C(=C/CO)CO (stereo unspecified)', 'SNB-78 CNS', 'TGI', '> 100 µM'),
  ('O=[N+]([O-])c1ccc(-c2csc(=[N+]3CCCCC3)s2)cc1', 'SNB-78 CNS', 'TGI', '> 100 µM'),
  ('O=c1c2cc3ccccc3n2c(=O)c2cc3ccccc3n12', 'SNB-78 CNS', 'TGI', '> 100 µM'),
  ('O=C[C@@H](CO)O[C@H](C=O)n1cnc2c(=O)[nH]cnc21', 'SNB-78 CNS', 'TGI', '2170 µM'),
  ('CC(C)(C)c1ccnc(N=C2N=C(Nc3cc(C(C)(C)C)ccn3)c3ccccc32)c1', 'SNB-78 CNS', 'TGI', '75 µM');

[Q] # query: TGI | item CCC(CO)Nc1nc2c(c(=O)n(C)c(=O)n2C)n1CCO (stereo unspecified) | system: SNB-78 CNS
[A] 53.5 µM

[Q] # query: TGI | item CO[C@@]1(c2ccccc2)O[C@H]2OCCC2[C@H]1c1ccc(Cl)cc1 (stereo partly specified) | system: SNB-78 CNS
[A] > 100 µM

[Q] # query: TGI | item CN(C)CCCNC(=O)N/N=C/c1ccccc1 | system: SNB-78 CNS
[A] > 100 µM

[Q] # query: TGI | item C[C@H]1C=C2C(=O)O[C@H]3CC[C@@H](C1)[C@@]23O | system: SNB-78 CNS
[A] 9.94 µM

[Q] # query: TGI | item CC1c2[nH]c3ccccc3c2CCN1O (stereo unspecified) | system: SNB-78 CNS
[A] > 100 µM

---

tested on: LOX IMVI melanoma; test: NCI tumour cell line growth inhibition, 48 h
value-kind: TGI

Answered examples (8):
INSERT INTO assay_data (molecule, target_desc, data_value) VALUES
  ('CC(=O)[O-].N.N.N.N.[Co+3].[O-][Cl+3]([O-])([O-])[O-].[OH3+]', 'LOX IMVI melanoma', '> 100 µM'),
  ('COc1ccc2[nH]c(C(=O)OCc3ccc4c(Cl)cc(Cl)c(O)c4n3)cc2c1', 'LOX IMVI melanoma', '2.22 µM'),
  ('CC(C)(C)OC(=O)N[C@@H](Cc1ccccc1)C(=O)N(Cc1ccccc1)C1(C(=O)NCc2ccccc2)CCN(Cc2ccccc2)CC1', 'LOX IMVI melanoma', '21.2 µM'),
  ('C[CH2][Sn]([CH2]C)([O]C(=O)c1ccc(F)cc1)[O]C(=O)c1ccc(F)cc1', 'LOX IMVI melanoma', '37.9 µM'),
  ('CC(=O)Oc1ccc2c(c1)C(=O)c1nc(C)c(C)nc1C2=O', 'LOX IMVI melanoma', '> 100 µM'),
  ('Cc1cc(-c2ccccc2)nc2oc(=O)n(C)c12', 'LOX IMVI melanoma', '> 100 µM'),
  ('CCOC(=O)N1CCN(c2c(N)nc(C)[nH]c2=O)CC1', 'LOX IMVI melanoma', '> 100 µM'),
  ('COc1ccc2nc3cc(Cl)ccc3c(Nc3cc(CN4CCCC4)c(O)c(CN4CCCC4)c3)c2n1', 'LOX IMVI melanoma', '5.09 µM');

[Q] I'd like to know its TGI. The molecule in question is CC[C@H](C)[C@H](NC(=O)c1cccn1C)C(=O)N(C)[C@H](C[C@@H](OC(C)=O)c1nc(C(=O)N[C@@H](Cc2ccccc2)C[C@H](C)C(=O)OC)cs1)C(C)C
[A] > 33.3 µM

[Q] I'd like to know its TGI. The molecule in question is COC(C)C(O)(C(=O)OCC1=CCN2CCC(O)C12)C(C)(C)O (centres undefined)
[A] > 100 µM

[Q] I'd like to know its TGI. The molecule in question is Cc1cccc2c1CC(Cc1ccccc1C(=O)O)C2=O (centres undefined)
[A] > 100 µM

[Q] I'd like to know its TGI. The molecule in question is CSc1ncc2c(n1)-c1ccccc1OC2NC1CC1 (centres undefined)
[A] > 100 µM

[Q] I'd like to know its TGI. The molecule in question is COc1ccc(OC(C)C(=O)O)c2c(=O)ccccc12 (centres undefined)
[A] > 100 µM

[Q] I'd like to know its TGI. The molecule in question is N#Cc1c(-c2ccc([N+](=O)[O-])cc2)c(C#N)c(=O)n(NS(=O)(=O)c2ccccc2)c1O
[A] > 100 µM

[Q] I'd like to know its TGI. The molecule in question is COC(=O)N/N=C(\C)CC(=O)Nc1ccc(Cl)cc1
[A] > 100 µM

[Q] I'd like to know its TGI. The molecule in question is CN(C)CCNCCCNc1c2ccccc2nc2cccc([N+](=O)[O-])c12
[A] < 0.0253 µM

[Q] I'd like to know its TGI. The molecule in question is Cc1cc(-c2cc(C(C)(C)C)c(O)c(C(C)(C)C)c2)c(C)cc1-c1cc(C(C)(C)C)c(O)c(C(C)(C)C)c1
[A] > 100 µM

[Q] I'd like to know its TGI. The molecule in question is CN(C)/N=N/c1nc2c(c(=O)n(C)c(=O)n2C)n1CC1CO1 (centres undefined)
[A] 23.7 µM

[Q] I'd like to know its TGI. The molecule in question is COc1ccc2c(c1)CCc1c-2n[nH]c1-c1[nH]nc2c1CCc1cc(OC)ccc1-2
[A] > 100 µM

---

test system: RXF-631 renal; assay: NCI tumour cell line growth inhibition, 48 h
value-kind: TGI

Answered examples (3):
INSERT INTO assay_data (compound, value_kind, data_value) VALUES
  ('O=[N+]([O-])c1ccc(-c2csc(=[N+]3CCCCC3)s2)cc1', 'TGI', '> 100 µM'),
  ('CCC1=C(CC2NCCc3ccccc32)CC2c3cc(OC)c(OC)cc3CCN2C1 (centres undefined)', 'TGI', '4.44 µM'),
  ('C=C1C(OC(C)=O)CC(OC(C)=O)C2(C)C(OC(C)=O)C(OC(C)=O)C3=C(C)C(OC(=O)/C=C/c4ccccc4)CC(C(OC(C)=O)C12)C3(C)C (centres undefined)', 'TGI', '> 100 µM');

# context switch: different compound, same TGI
[Q] # query: TGI | item CC1=CCCC2C(C=O)(C1)CC(C)C2(CO)CC/C(=C/CO)CO (centres undefined) | system: RXF-631 renal
[A] > 100 µM

---

Catalogue of TGI readings, one per entry.
system: U251 CNS; experiment: NCI tumour cell line growth inhibition, 48 h

Answered examples (5):
INSERT INTO assay_data (compound, data_value) VALUES
  ('COC1(CC[C@H](C)COC2OC(CO)C(O)C(O)C2O)O[C@H]2C[C@H]3[C@@H]4CC=C5C[C@@H](OC6OC(CO)C(OC7OC(C)C(O)C(O)C7O)C(O)C6OC6OC(C)C(O)C(O)C6O)CC[C@]5(C)[C@H]4CC[C@]3(C)[C@H]2[C@@H]1C (stereo partly drawn)', '7.36 µM'),
  ('COc1ccc([C@]23CCC4(OCC(C)(C)CO4)[C@H]4CON(O[C@H](O[C@@H]5CCCCC5C(C)(C)c5ccccc5)C2)[C@@H]43)cc1OC (stereo partly drawn)', '> 100 µM'),
  ('N#CC1=C(N)NC(=O)NC12Nc1ccccc1N2', '> 100 µM'),
  ('CNC(=S)N1CCN(C(C)=O)C1=S', '17.2 µM'),
  ('CC1=CCCC2C(C=O)(C1)CC(C)C2(CO)CC/C(=C/CO)CO (stereo not drawn)', '> 100 µM');

[Q] I'd like to know its TGI. The compound in question is COc1ccc([C@@H]2OC(=O)C3C2C(=O)O[C@H]3c2ccc(OC)c(OC)c2)cc1OC (stereo partly drawn)
[A] > 100 µM

[Q] I'd like to know its TGI. The compound in question is CCOC(=O)/C=C/c1cccc(F)c1
[A] > 100 µM

[Q] I'd like to know its TGI. The compound in question is COc1ccc2nc3cc(Cl)ccc3c(Nc3cc(CN4CCCC4)c(O)c(CN4CCCC4)c3)c2n1
[A] 11.5 µM

Sourced from PubChem BioAssay (NCI)
